# System: coronary blood flow
# ASSAY_NOTES: recording the volume rate of coronary blood flow in experiments on narcotized cats (coronarodilating activity)
# Type: in vivo
# SETTINGS: Felis catus, iv; increase of coronary blood flow by 30-50%; read-out: Dose increasing the coronary blood flow by 30-50%
OBSERVED_PROPERTY: ED (30-50%) (mg/kg)
Only the number, expressed in mg/kg, is required.

INSERT INTO results (compound, numeric_result) VALUES
  ('CCOC(=O)C1=C(C)NC(C)=C(C(=O)SCc2ccccc2)C1c1ccccc1 (stereo not drawn)', 0.5);

Input: So what's the measured ED (30-50%) for this one? CCSC(=O)C1=C(C)NC2=C(C(=O)c3ccccc32)C1c1ccccc1O (stereo not drawn)
Output: 3

Input: Query: ED (30-50%); subject: CCSC(=O)C1=C(C)NC(C)=C(C(=O)SCC)C1c1cccnc1
Output: 0.5

Input: Recorded ED (30-50%) of CCOC(=O)COc1ccc2c(C)c(CCN(CC)CC)c(=O)oc2c1 [Carbocromene, reference compound] , please.
Output: 0.5

Input: Entry under review: CCSC(=O)C1=C(C)NC(C)=C(C(=O)SCC)C1 . Reported ED (30-50%)?
Output: 1

Input: // lookup ED (30-50%) for CCSC(=O)C1=C(C)NC2=C(C(=O)c3ccccc32)C1c1ccccc1 (stereo not drawn)
Output: 3

Input: Record request: ED (30-50%) value, item CCSC(=O)C1=C(C)NC2=C(C(=O)c3ccccc32)C1c1ccc([N+](=O)[O-])cc1 (stereo not drawn)
Output: 3

Input: # lookup: ED (30-50%) of CCSC(=O)C1=C(C)NC2=C(C(=O)c3ccccc32)C1c1ccccc1[N+](=O)[O-] (stereo not drawn)
Output: 3

====

# ASSAY_NOTES: in vivo
# SETTINGS: mouse, in vivo, ip; white mice, intraperitoneal; read-out: LD50 for white mice upon intraperitoneal administration
Here, each record is paired with measured LD50 data.

INSERT INTO measurements (compound, result) VALUES
  ('COc1ccc(Cc2nccc3cc(OC)c(OC)cc23)cc1OC [Papaverine, reference compound]', '91 mg/kg'),
  ('CCSC(=O)C1=C(C)NC2=C(C(=O)c3ccccc32)C1c1ccccc1[N+](=O)[O-] (stereo not drawn) [X]', '> 2000 mg/kg');

Input: Using the record for CCSC(=O)C1=C(C)NC(C)=C(C(=O)SCC)C1 [I] , report its LD50.
Output: > 4000 mg/kg
